# tested.system: 3',5'-cyclic-AMP phosphodiesterase 4D (Homo sapiens, UniProt Q08499)
# Sequence (Q08499 whole entry): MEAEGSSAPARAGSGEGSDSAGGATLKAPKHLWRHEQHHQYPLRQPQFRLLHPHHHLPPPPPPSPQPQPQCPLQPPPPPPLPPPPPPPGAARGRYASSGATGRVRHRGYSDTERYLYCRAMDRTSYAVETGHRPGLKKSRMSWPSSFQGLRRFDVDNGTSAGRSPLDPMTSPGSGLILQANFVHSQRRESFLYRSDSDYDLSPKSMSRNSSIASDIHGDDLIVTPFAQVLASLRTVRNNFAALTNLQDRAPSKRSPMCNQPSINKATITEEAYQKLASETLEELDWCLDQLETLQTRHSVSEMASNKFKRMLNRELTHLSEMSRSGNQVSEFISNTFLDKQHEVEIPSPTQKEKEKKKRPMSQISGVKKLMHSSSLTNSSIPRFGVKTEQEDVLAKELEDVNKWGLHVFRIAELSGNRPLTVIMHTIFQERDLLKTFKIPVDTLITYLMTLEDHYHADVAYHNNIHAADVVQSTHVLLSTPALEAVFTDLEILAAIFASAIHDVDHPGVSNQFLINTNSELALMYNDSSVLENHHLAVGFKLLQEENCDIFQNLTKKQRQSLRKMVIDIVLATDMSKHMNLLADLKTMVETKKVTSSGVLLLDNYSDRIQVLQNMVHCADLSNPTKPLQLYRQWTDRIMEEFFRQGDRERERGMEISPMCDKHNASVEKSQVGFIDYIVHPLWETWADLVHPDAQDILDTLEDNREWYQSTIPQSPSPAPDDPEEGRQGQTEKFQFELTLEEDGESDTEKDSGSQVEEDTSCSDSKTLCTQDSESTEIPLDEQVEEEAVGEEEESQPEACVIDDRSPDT
pIC50: −log10 of the molar value.
property.label: pIC50

(1) N#Cc1cccc(-c2nc(N3CCOCC3)cc3cccnc23)c1
(2) O=C(O)[C@H]1CC[C@H](c2cc3cccnc3c(-c3cccc(Cl)c3)n2)CC1
Lookup: Kindly identify which of 1 and 2 has the larger recorded pIC50 value. Label of pick, please.
Found: 1

* * *

# test: Thermodynamic aqueous solubility of the compound at pH 6.8
# Assay type: physicochemical
# experimental.parameters: aqueous, read-out: Therm_solubility
property.label: solubility thermodynamic (µg/mL)

(1) O=C(O)c1ccc(-c2cc3cccnc3c(-c3ccc4nonc4c3)n2)cc1
(2) O=C(O)[C@H]1CC[C@H](c2cc3cccnc3c(-c3cccc(Cl)c3)n2)CC1
Lookup: Which one would you say has the larger solubility thermodynamic value: 1 , or 2 ? Label of pick, please.
Found: 1
(1: 2.3 µg/mL, 2: 0.14 µg/mL)
